Value source: patent US20240270821A1

# Tested On: hGLP-1R (Homo sapiens)
# Sequence (P43220 24-463): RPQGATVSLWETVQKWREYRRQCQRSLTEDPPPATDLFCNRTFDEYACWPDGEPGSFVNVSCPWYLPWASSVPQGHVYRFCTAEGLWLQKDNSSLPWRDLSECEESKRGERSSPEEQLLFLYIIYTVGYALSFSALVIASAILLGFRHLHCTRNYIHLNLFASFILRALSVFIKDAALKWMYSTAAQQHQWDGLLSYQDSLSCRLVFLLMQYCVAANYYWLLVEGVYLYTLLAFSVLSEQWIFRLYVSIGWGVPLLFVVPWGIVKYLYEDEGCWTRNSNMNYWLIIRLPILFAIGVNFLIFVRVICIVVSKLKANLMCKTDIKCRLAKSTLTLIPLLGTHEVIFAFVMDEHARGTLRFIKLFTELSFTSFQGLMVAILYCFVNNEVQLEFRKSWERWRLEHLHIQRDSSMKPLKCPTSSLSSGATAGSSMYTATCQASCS
# Experiment: Functional cAMP activation in the presence of 0.1% casein (no HSA);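 note: intracellular cAMP rise after 30 min at 37 °C read by HTRF, normalized between buffer only (0%) and maximal control ligand (100%), four-parameter variable-slope fit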
# Format: cell-based
# Condition Description: in the presence of 0.1% casein (no HSA); geometric mean; read-out: Relative cAMP EC50, hGLP-1R
pEC50: −log10 of the molar value. Starred links: 1 amine or outer side, 2 acyl side, 3 side chain; linkers in the order of their positions; H or OH if unused. Non-standard residues stand in square brackets, D forms with d. Groups on a side chain read outwards from the residue. No end group written: not given here. *: point of attachment. C20 diacid = O=C(O)CCCCCCCCCCCCCCCCCCC(=O)*; C18 diacid = O=C(O)CCCCCCCCCCCCCCCCC(=O)*; αMePhe(2-F) = C[C@](N)(Cc1ccccc1F)C(=O)O; γGlu = O=C(O)[C@H](CCC(=O)[*:2])N[*:1]; αMe4Pal = C[C@](N)(Cc1ccncc1)C(=O)O; αMeY = C[C@](N)(Cc1ccc(O)cc1)C(=O)O; 4Pal = N[C@@H](Cc1ccncc1)C(=O)O; αMeL = CC(C)C[C@](C)(N)C(=O)O; Orn = NCCC[C@H](N)C(=O)O; AEEA = NCCOCCOCC(=O)O; Aib = CC(C)(N)C(=O)O

Substance	pEC50
H-Y[Aib]QGTFTSDFS[Orn][αMeL]LDKK([AEEA-γGlu-C18 diacid])AQ[αMe4Pal]EFIEYLIE[Aib]GPSSGAPPPSGS-NH2 [Example 879]	8.40
Y[Aib]QGTFTSD[4Pal]SQ[αMeL]LD[Orn]K([AEEA-γGlu-C18 diacid])AQ[αMe4Pal]AFIE[αMeY]LLEGGPSSGAPPPSGS-NH2 [Example 932]	8.79
H-Y[Aib]QGT[αMePhe(2-F)]TSDYSI[αMeL]LDKK([AEEA-AEEA-γGlu-C20 diacid])AA[Aib]AFIEYLIETGPSSGAPPPSEG-NH2 [Example 383]	9.59
H-Y[Aib]QGTFTSDYSI[αMeL]LDKIAAK([AEEA-AEEA-γGlu-C20 diacid])QFVEYLIAGGPSSGEPPPSEG-NH2 [Example 312]	8.58
H-Y[Aib]QGTFTSDYS[Orn][αMeL]LDKK([AEEA-γGlu-C18 diacid])AQ[Aib]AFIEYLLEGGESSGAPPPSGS-NH2 [Example 359]	8.34
Y[Aib]QGTFTSDFSK[αMeL]LDKK([AEEA-γGlu-C18 diacid])AQ[Aib]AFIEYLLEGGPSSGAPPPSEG-NH2 [Example 48]	8.52

* * *

Below, each entry is listed alongside its reported pEC50.
# Tested On: human GcgR (Homo sapiens, UniProt P47871)
# Sequence (P47871 26-477): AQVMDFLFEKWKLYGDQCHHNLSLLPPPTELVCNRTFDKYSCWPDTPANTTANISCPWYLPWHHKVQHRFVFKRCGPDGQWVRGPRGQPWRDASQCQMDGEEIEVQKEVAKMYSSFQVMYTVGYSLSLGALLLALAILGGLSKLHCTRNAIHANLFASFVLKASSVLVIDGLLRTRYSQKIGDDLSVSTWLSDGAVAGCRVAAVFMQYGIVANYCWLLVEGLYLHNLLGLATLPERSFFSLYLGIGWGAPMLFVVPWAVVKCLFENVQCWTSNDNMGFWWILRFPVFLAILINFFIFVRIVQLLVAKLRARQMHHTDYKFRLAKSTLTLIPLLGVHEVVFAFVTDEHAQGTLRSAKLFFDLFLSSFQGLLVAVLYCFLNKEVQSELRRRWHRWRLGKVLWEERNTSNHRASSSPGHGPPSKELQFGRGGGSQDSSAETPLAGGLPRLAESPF
# Experiment: Functional cAMP activity in the presence of 1% HSA
# Assay type: cell-based
# Condition Description: read-out: cAMP Rel EC50, hGcgR
pEC50: −log10 of the molar value. Starred links: 1 amine or outer side, 2 acyl side, 3 side chain; linkers in the order of their positions; H or OH if unused. Non-standard residues stand in square brackets, D forms with d. Groups on a side chain read outwards from the residue. No end group written: not given here. *: point of attachment. C18 diacid = O=C(O)CCCCCCCCCCCCCCCCC(=O)*; αMePhe(2-F) = C[C@](N)(Cc1ccccc1F)C(=O)O; γGlu = O=C(O)[C@H](CCC(=O)[*:2])N[*:1]; αMe4Pal = C[C@](N)(Cc1ccncc1)C(=O)O; αMeY = C[C@](N)(Cc1ccc(O)cc1)C(=O)O; 4Pal = N[C@@H](Cc1ccncc1)C(=O)O; αMeL = CC(C)C[C@](C)(N)C(=O)O; αMeS = C[C@](N)(CO)C(=O)O; Orn = NCCC[C@H](N)C(=O)O; AEEA = NCCOCCOCC(=O)O; Aib = CC(C)(N)C(=O)O
Recorded Metric: pEC50

Substance	Recorded Metric	Data Value
H-Y[Aib]QGTFTSD[4Pal]SQ[αMeL]LD[Orn]K([dE-γGlu-C18 diacid])AQ[αMe4Pal]AFIQ[αMeY]LIA[Aib]GPSSGEPPPSGGGE-NH2 [Example 1130]	pEC50	5.91
Y[Aib]QGT[αMePhe(2-F)]TSD[4Pal][αMeS]I[αMeL]LD[Orn]K([AEEA-γGlu-C18 diacid])AQ[αMe4Pal]EFI[dE][αMeY]LIEGGPSSGEPPPEGTGE-NH2 [Example 763]	pEC50	6.65
Y[Aib]QGTFTSD[4Pal]SQ[αMeL]LD[Orn]K([dE-γGlu-C18 diacid])AQ[αMe4Pal]QFIE[αMeY]LIAGGPSSGAPPPSGSEEE-NH2 [Example 1081]	pEC50	5.67
H-Y[Aib]QGT[αMePhe(2-F)]TSD[4Pal]SI[αMeL]LD[Orn]K([AEEA-γGlu-C18 diacid])AQ[αMe4Pal]EFI[dE][αMeY]LLEGGPSSGAPPPSGE-NH2 [Example 615]	pEC50	6.16
H-Y[Aib]QGT[αMePhe(2-F)]TSD[4Pal][αMeS]I[αMeL]LD[Orn]K([AEEA-γGlu-C18 diacid])AQ[αMe4Pal]EFI[dE][αMeY]LIEGGPSSGAPPPSGSE-NH2 [Example 712]	pEC50	6.77
